assay: Bioavailability in Sprague-Dawley rat after intraduodenal administration; format: ADME, organism-based; conditions: in vivo
Measurement label: bioavailability (%)

[[record]]
compound_structure = "O=C(O)CN1C(=O)[C@@]2(NC(=O)N(Cc3cc(Cl)ccc3F)C2=O)c2cc(Cl)ccc21"
value_units = "%"
result_number = 11


====

# bioavailability per record follows
test: Oral bioavailability in Sprague-Dawley rat at 5 mg/kg; type: ADME, organism-based; settings: in vivo
Measurement label: bioavailability (%)

[[record]]
compound_structure = "CN1C(=O)N(Cc2cc(Cl)ccc2F)C(=O)[C@]12C(=O)N(CC(=O)O)c1ccc(Cl)cc12"
result_number = 37

[[record]]
compound_structure = "O=C(O)CN1C(=O)[C@@]2(CC(=O)N(Cc3cc(Cl)ccc3F)C2)c2cc(Cl)ccc21"
result_number = 5

[[record]]
compound_structure = "O=C(O)CN1C(=O)[C@@]2(NC(=O)N(Cc3cc(Cl)ccc3F)C2=O)c2cc(Cl)ccc21"
result_number = 6


====

test: Intrinsic clearance in human liver microsomes; type: ADME, Microsome; conditions: read-out: CLH
Measurement label: microsomal CLint

[[record]]
compound_structure = "CN1C(=O)N(Cc2cc(Cl)ccc2F)C(=O)[C@]12C(=O)N(CC(=O)O)c1ccc(Cl)cc12"
measurement_label = "microsomal CLint"
result = "< 10 µL/min/mg"


====

experiment: AUC in C57BL/6 mouse at 5 mg/kg, po; format: ADME, organism-based; design: dose 5 mg/kg, route oral; conditions: plasma
# AUC per record follows
Measurement label: AUC (ng·h/mL)

[[record]]
compound_structure = "CN1C(=O)N(Cc2cc(Cl)ccc2F)C(=O)[C@]12C(=O)N(CC(=O)O)c1ccc(Cl)cc12"
measurement_label = "AUC"
result_number = 2400

[[record]]
compound_structure = "O=C(O)CN1C(=O)[C@@]2(NC(=O)N(Cc3cc(Cl)ccc3F)C2=O)c2cc(Cl)ccc21"
measurement_label = "AUC"
result_number = 580


====

# fraction unbound per record follows
assay: Fraction unbound in mouse plasma; format: ADME, cell-free
Measurement label: fraction unbound

[[record]]
compound_structure = "CN1C(=O)N(Cc2cc(Cl)ccc2F)C(=O)[C@]12C(=O)N(CC(=O)O)c1ccc(Cl)cc12"
result_number = 0.05

[[record]]
compound_structure = "O=C(O)CN1C(=O)[C@@]2(NC(=O)N(Cc3cc(Cl)ccc3F)C2=O)c2cc(Cl)ccc21"
result_number = 0.063

